Species: Homo sapiens
Test Details: Selectivity ratio of IC50 for human MC1 receptor to IC50 for human MC4 receptor
So I've got a bunch of compounds here, and I need their Ratio IC50 values.
Give bare numbers.

The cases that follow already have their Ratio IC50 on record.
compound="CC(C)N(CC(C1CCCCC1)N1CCN(C(=O)[C@@H]2CN(C(C)(C)C)C[C@H]2c2ccc(F)cc2F)CC1)C(=O)c1cnn(C(C)C)c1 (single isomer, unassigned; diastereomer 1)" measurement=20
compound="CC(=O)N(CC(CC(C)C)N1CCN(C(=O)[C@@H]2CN(C(C)(C)C)C[C@H]2c2ccc(F)cc2F)CC1)C(C)C (single isomer, unassigned; diastereomer 2)" measurement=20
compound="CC(C)CC(CN(C(C)C)S(C)(=O)=O)N1CCN(C(=O)[C@@H]2CN(C(C)(C)C)C[C@H]2c2ccc(F)cc2F)CC1 (single isomer, unassigned; diastereomer 2)" measurement=20
compound="CC(=O)N(CC(C1CCCCC1)N1CCN(C(=O)[C@@H]2CN(C(C)(C)C)C[C@H]2c2ccc(F)cc2F)CC1)C(C)C (stereo in doubt; 19B)" measurement=20

Lab note: next compound to report on.
The compound listed as CC(C)N(CC(C1CCCCC1)N1CCN(C(=O)[C@@H]2CN(C(C)(C)C)C[C@H]2c2ccc(F)cc2F)CC1)S(C)(=O)=O (single isomer, unassigned; diastereomer 2) has a reported Ratio IC50 of 20

----------
Test Details: Clearance in Sprague-Dawley rat at 1 mg/kg, iv and 4 mg/kg, po
Format: ADME, organism-based
Assay Conditions: in vivo
Measured Endpoint: clearance (L/h/kg)
Numbers only, in L/h/kg.

The cases that follow already have their clearance on record.
compound="CC(=O)N(CC(C1CCCCC1)N1CCN(C(=O)[C@@H]2CN(C(C)(C)C)C[C@H]2c2ccc(F)cc2F)CC1)C(C)C (stereo in doubt; 19B)" measured_endpoint=clearance unit=L/h/kg measurement=2.52
compound="CC(C)N(CC(C1CCCCC1)N1CCN(C(=O)[C@@H]2CN(C(C)(C)C)C[C@H]2c2ccc(F)cc2F)CC1)S(C)(=O)=O (single isomer, unassigned; diastereomer 2)" measured_endpoint=clearance unit=L/h/kg measurement=1.5
compound="CCN(CC)CC(C1CCCCC1)N1CCN(C(=O)[C@@H]2CN(C(C)(C)C)C[C@H]2c2ccc(F)cc2F)CC1 (some centres undefined)" measured_endpoint=clearance unit=L/h/kg measurement=0.438

Lab note: next compound to report on.
The compound listed as CC(C)N(CC(C1CCCCC1)N1CCN(C(=O)[C@@H]2CN(C(C)(C)C)C[C@H]2c2ccc(F)cc2F)CC1)C(=O)c1ncccn1 (single isomer, unassigned; diastereomer 1) has a reported clearance of 1.86

----------
Target Or System: Melanocortin receptor 3 (Homo sapiens)
Sequence (P41968 whole entry): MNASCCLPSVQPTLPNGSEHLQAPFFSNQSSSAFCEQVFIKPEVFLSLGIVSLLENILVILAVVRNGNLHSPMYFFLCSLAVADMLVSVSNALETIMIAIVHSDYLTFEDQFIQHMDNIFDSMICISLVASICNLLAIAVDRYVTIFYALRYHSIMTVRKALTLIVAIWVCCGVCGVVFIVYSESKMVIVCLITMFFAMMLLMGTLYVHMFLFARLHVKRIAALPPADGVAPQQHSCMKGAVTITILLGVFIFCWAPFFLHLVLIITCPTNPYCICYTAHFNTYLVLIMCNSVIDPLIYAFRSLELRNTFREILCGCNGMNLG
Test Details: Agonist activity at human MC3 receptor expressed in CHO cells assessed as increase of alpha-MSH-induced cAMP accumulation
Measured Endpoint: pEC50
Answers are plain numbers, as −log10 of the molar value.

The cases that follow already have their pEC50 on record.
compound="CC(C)N(CC(C1CCCCC1)N1CCN(C(=O)[C@@H]2CN(C(C)(C)C)C[C@H]2c2ccc(F)cc2F)CC1)C(=O)c1cccnn1 (single isomer, unassigned; diastereomer 1)" measured_endpoint=pEC50 measurement=7.05
compound="CC(C)N(CC(C1CCCCC1)N1CCN(C(=O)[C@@H]2CN(C(C)(C)C)C[C@H]2c2ccc(F)cc2F)CC1)C(=O)c1cnn(C(C)C)c1 (single isomer, unassigned; diastereomer 1)" measured_endpoint=pEC50 measurement=7.10
compound="CC(=O)N(CC(CC(C)C)N1CCN(C(=O)[C@@H]2CN(C(C)(C)C)C[C@H]2c2ccc(F)cc2F)CC1)C(C)C (single isomer, unassigned; diastereomer 2)" measured_endpoint=pEC50 measurement=6.06
compound="CC(=O)N(CC(C1CCCCC1)N1CCN(C(=O)[C@@H]2CN(C(C)(C)C)C[C@H]2c2ccc(F)cc2F)CC1)C(C)C (stereo in doubt; 19B)" measured_endpoint=pEC50 measurement=5.70
compound="CC(C)N(CC(C1CCCCC1)N1CCN(C(=O)[C@@H]2CN(C(C)(C)C)C[C@H]2c2ccc(F)cc2F)CC1)S(C)(=O)=O (single isomer, unassigned; diastereomer 2)" measured_endpoint=pEC50 measurement=5.74

The compound listed as CC(C)CC(CN(C(C)C)S(C)(=O)=O)N1CCN(C(=O)[C@@H]2CN(C(C)(C)C)C[C@H]2c2ccc(F)cc2F)CC1 (single isomer, unassigned; diastereomer 2) has a reported pEC50 of 5.60
